System: Second-instar and fifth-instar larvae of tobacco cutworm
Test: Test 2: Tobacco Cutworm Larva Dipping Test
Type: in vivo
Details: 100 ppm; second-instar larvae; 24 hours; read-out: Mortality (%) Second-Instar Larvae
Reported mortality at 100 ppm values for the following molecules.
API: value field is a number in %; no unit string.

Query: System Second-instar and fifth-instar larvae of tobacco cutworm. Read-out mortality at 100 ppm. Item CC(C)(COCc1ccc(F)c(Oc2ccc(F)cc2)c1)c1ccc(Cl)cc1 [Compound 1] . Report value.
Result: 90

---

Experiment: Test 8: Fish Toxicity
Assay type: in vivo
Conditions: carp, water, carps, concentration at which 1/2 of the test fishes were killed, read-out: Fish Toxicity, TLm48
Readout kind: LC50 at 48 h

Examples from the recorded data:
>>> df
                                 cpd_smiles  readout_kind    observed
0  COCSc1ccc(C(C)(C)COCc2ccc(F)c(Oc3ccccc3)c2)cc1  LC50 at 48 h   > 1 µg/mL
1  CCCCOc1ccc(C(C)(C)COCc2ccc(F)c(Oc3ccccc3)c2)cc1  LC50 at 48 h  ~0.5 µg/mL
2  Cc1ccc(C(C)(C)COCc2cc(Oc3ccccc3)ccc2Cl)cc1  LC50 at 48 h  > 10 µg/mL

Query: Consider the compound CC(C)(COCc1ccc(Cl)c(Oc2ccccc2)c1)c1ccc(Cl)cc1 . State its measured LC50 at 48 h.
Result: > 10 µg/mL

Query: Let me know recorded LC50 at 48 h for CC(C)(COCc1ccc(F)c(Oc2ccccc2)c1)c1ccc(Br)cc1 , thanks.
Result: > 0.1 µg/mL

---

# maps each entry to its LC50 at 48 h
Assay: Test 8: Fish Toxicity
Assay type: in vivo
Details: carp, water, carps, concentration at which 1/2 of the test fishes were killed, read-out: Fish Toxicity, TLm48

Consider the following illustrative entries.
In [3]: df
Out[3]:
                                   molecule     observed
0  CC(C)(COCc1ccc(F)c(Oc2ccccc2)c1)c1ccc(Cl)c(Cl)c1 [Compound 14]    > 1 µg/mL
1  CCC(COCc1ccc(F)c(Oc2ccccc2)c1)c1ccc(Cl)cc1 (stereo not shown) [Compound 6]    > 1 µg/mL
2  COc1ccc(C(C)(C)COCc2ccc(F)c(Oc3ccccc3)c2)cc1 [Compound 16]  > 0.5 µg/mL

Consider now this further molecule.
Query: Look up LC50 at 48 h of CC(C)(COCc1ccc(F)c(Oc2ccccc2)c1)c1ccccc1 [Compound 2] and report it.
Result: > 1 µg/mL

---

Listing of recorded mortality at 20 ppm by entry.
Test system: Second-instar and fifth-instar larvae of tobacco cutworm
Experiment: Test 2: Tobacco Cutworm Larva Dipping Test
Type: in vivo
Details: topical, 24 h, read-out: Mortality (%) Fifth-Instar Larvae
Write the value in % as a bare number.

Check out these entries, answers already filled in.
>>> print(df.to_string())
                                   compound         readout_kind  units_label  observed
0  CC(C)(COCc1ccc(F)c(Oc2ccccc2)c1)c1ccccc1 [Compound 2]  mortality at 20 ppm            %       100
1  CC(C)(COCc1ccc(F)c(Oc2ccc(Br)cc2)c1)c1ccc(Cl)cc1 [Compound 15]  mortality at 20 ppm            %       100

Query: Specify measured mortality at 20 ppm for CC(C)(COCc1ccc(F)c(Oc2ccccc2)c1)c1ccc(Cl)cc1 [Compound 10] .
Result: 100

Query: Answer with reported mortality at 20 ppm of CC(C)(COCc1ccc(F)c(Oc2ccccc2)c1)c1ccc(I)cc1 [Compound 66]
Result: 75

Query: Look up and report measured mortality at 20 ppm for this entry: CC(C)(COCc1ccc(F)c(Oc2ccccc2)c1)c1ccc(F)c(Cl)c1 [Compound 50]
Result: 80

---

Measured mortality at 100 ppm of individual entries
Test system: Second-instar and fifth-instar larvae of tobacco cutworm
Test: Test 2: Tobacco Cutworm Larva Dipping Test
Assay type: in vivo
Conditions: 100 ppm; second-instar larvae; 24 hours; read-out: Mortality (%) Second-Instar Larvae
Response body: numeric value in %, unit text excluded.

Sample records with mortality at 100 ppm:
In [3]: df
Out[3]:
                                 cpd_smiles  observed
0  CC(C)(COCc1ccc(F)c(Oc2ccccc2)c1)c1ccccc1       100
1  CC(C)(COCc1ccc(F)c(Oc2ccc(Br)cc2)c1)c1ccc(Cl)cc1       100

Now consider a different compound.
Query: Entry CC(C)(COCc1ccc(F)c(Oc2ccccc2)c1)c1ccc(I)cc1 needs its mortality at 100 ppm filled in; supply it.
Result: 100

---

Recorded LC50 at 48 h by entry
Assay: Test 8: Fish Toxicity
Type: in vivo
Conditions: carp, water, carps, concentration at which 1/2 of the test fishes were killed, read-out: Fish Toxicity, TLm48
Experimental: A water tank having a width of 60 cm, a length of 30 cm and a height of 40 cm was filled with water, and 10 yearling carps having a body length of about 5 cm were set free in the tank and adapted to the environment in the tank. A test compound was applied so that the concentration in water was 10, 1, or 0.1 ppm. After 48 hours, the numbers of killed and living carps were counted and the influences on the fishes were examined.

In [3]: df
Out[3]:
                                   compound    observed
0  CCOc1ccc(C(C)(C)COCc2ccc(F)c(Oc3ccc(Br)cc3)c2)cc1   > 1 µg/mL
1  CC(C)(COCc1ccc(F)c(Oc2ccccc2)c1)c1ccc(-c2ccccc2)cc1   > 1 µg/mL
2  COc1ccc(C(C)(C)COCc2ccc(F)c(Oc3ccc(F)cc3)c2)cc1   > 1 µg/mL
3  CC(C)(COCc1ccc(F)c(Oc2cccc(Cl)c2)c1)c1ccc(Cl)cc1   > 1 µg/mL
4  CC(C)(COCc1ccc(F)c(Oc2ccc(Br)cc2)c1)c1ccc(Cl)cc1  > 10 µg/mL

Query: Report measured LC50 at 48 h; entry is CC(C)(COCc1ccc(F)c(Oc2ccccc2)c1)c1ccc(Oc2ccccc2)cc1
Result: > 1 µg/mL

Query: Determine from records and report LC50 at 48 h for Cc1ccc(C(C)(C)COCc2ccc(F)c(Oc3ccccc3)c2)cc1
Result: > 1 µg/mL

Query: Dear colleague, please send me the reported LC50 at 48 h for CC(C)(COCc1ccc(F)c(Oc2ccccc2)c1)c1ccc(Cl)cc1 when you can.
Result: > 0.1 µg/mL

Query: Indicate the recorded LC50 at 48 h value for this compound: CC(C)(COCc1ccc(F)c(Oc2ccc(F)cc2)c1)c1ccc(Cl)c(Cl)c1
Result: > 1 µg/mL

Query: Please report the measured LC50 at 48 h for CC(C)(COCc1ccc(F)c(Oc2ccccc2)c1)c1cc(Cl)cc(Cl)c1
Result: > 1 µg/mL

Query: Return LC50 at 48 h for the following compound: CC(C)(COCc1cc(Oc2ccccc2)ccc1Br)c1ccc(Cl)cc1
Result: > 10 µg/mL

Query: For the compound CC(C)(COCc1ccc(F)c(Oc2ccc(F)cc2)c1)c1ccc(Cl)cc1 , give its reported LC50 at 48 h.
Result: ~1 µg/mL

Query: Return reported LC50 at 48 h. Input compound: CCC(C)(COCc1ccc(F)c(Oc2ccccc2)c1)c1ccc(Cl)cc1 (stereo not drawn)
Result: > 1 µg/mL

Query: For the compound CCCCCOc1ccc(C(C)(C)COCc2ccc(F)c(Oc3ccccc3)c2)cc1 , report LC50 at 48 h.
Result: > 1 µg/mL

Query: Return the recorded LC50 at 48 h value; entry: CC(C)(COCc1ccc(F)c(Oc2ccccc2)c1)c1ccc(OC2CCCCC2)cc1
Result: > 1 µg/mL

---

The following molecules are shown together with reported mortality at 20 ppm values.
System: Second-instar and fifth-instar larvae of tobacco cutworm
Assay: Test 2: Tobacco Cutworm Larva Dipping Test
Assay type: in vivo
Conditions: topical, 24 h, read-out: Mortality (%) Fifth-Instar Larvae
Only the number, expressed in %, is required.

Consider the following illustrative entries.
In [3]: df
Out[3]:
                                   molecule  units_label  observed
0  CCC(COCc1ccc(F)c(Oc2ccccc2)c1)c1ccc(Cl)cc1 (centres unmarked)            %        85
1  CCOc1ccc(C(C)(C)COCc2ccc(F)c(Oc3ccccc3)c2)cc1            %       100
2  CC(C)(COCc1ccc(F)c(Oc2ccc(F)cc2)c1)c1ccc(Cl)cc1            %        70
3  CC(C)(COCc1ccc(F)c(Oc2ccccc2)c1)c1ccc(F)cc1            %       100

Query: Tell me mortality at 20 ppm reported for CCOc1ccc(C(C)(C)COCc2ccc(F)c(Oc3ccccc3)c2)cc1C
Result: 100

Query: Provide measured mortality at 20 ppm value, entry: CC(C)Oc1ccc(C(C)(C)COCc2ccc(F)c(Oc3ccccc3)c2)cc1
Result: 100

Query: Provide one value: measured mortality at 20 ppm of CCOc1ccc(C(C)(C)COCc2ccc(F)c(Oc3ccccc3)c2)cc1Cl
Result: 100

Query: Supply measured mortality at 20 ppm of CC(C)(COCc1ccc(F)c(Oc2ccccc2)c1)c1ccc(OC(F)F)cc1 in your reply.
Result: 100
